target: HIV-1 protease (Human immunodeficiency virus type 1 group M subtype B); assay: biochemical; conditions: read-out: HIV-1 Protease % Inhib, dose 100.000 uM

molecule: CCC(c1c(O)c2ccccc2oc1=O)c1cccc2ccccc12 (stereo not drawn)
inhibition at 100 µM, %: 79.8
--
molecule: CC(C)C(c1ccccc1)c1c(O)c2ccccc2oc1=O (stereo not drawn)
inhibition at 100 µM, %: 98.3
--
molecule: CC(c1cccc(C#N)c1)c1c(O)c2ccccc2oc1=O (stereo not drawn)
inhibition at 100 µM, %: 39.2
--
molecule: CC(C)CC(c1ccccc1)c1c(O)c2ccccc2oc1=O (stereo not drawn)
inhibition at 100 µM, %: 87.1
--
molecule: CCC(c1cccc(NC(=O)CCc2c[nH]c3ccccc23)c1)c1c(O)c2ccccc2oc1=O (stereo not drawn)
inhibition at 100 µM, %: 80.9
--
molecule: CCC(c1cccc(C#N)c1)c1c(O)c2ccccc2oc1=O (stereo not drawn)
inhibition at 100 µM, %: 74.5
--
molecule: C=CS(=O)(=O)Nc1cccc(C(CC)c2c(O)c3ccccc3oc2=O)c1 (stereo not drawn)
inhibition at 100 µM, %: 89.1
--
molecule: CCC(c1ccccc1OC(C)=O)c1c(O)c2ccccc2oc1=O (stereo not drawn)
inhibition at 100 µM, %: 96.7
--
molecule: O=c1oc2c(c(O)c1C(c1ccccc1)C1CC1)CCCCCC2 (stereo not drawn)
inhibition at 100 µM, %: 101
--
molecule: COC(=O)C(C(=O)OC)C(c1ccccc1)c1c(O)c2ccccc2oc1=O (stereo not drawn)
inhibition at 100 µM, %: 64
--
molecule: CC(C)(C)OC(=O)NCCC(=O)Nc1cccc(C(c2c(O)c3ccccc3oc2=O)C2CC2)c1 (stereo not drawn)
inhibition at 100 µM, %: 114
--
molecule: CCCC(c1cccc(C)c1)c1c(O)c2ccccc2oc1=O (stereo not drawn)
inhibition at 100 µM, %: 78.2

---

target: HIV-1 protease (Human immunodeficiency virus type 1 group M subtype B, UniProt P04585); assay: biochemical; conditions: dose 0.370 uM; read-out: HIV-1 Protease % Inhib
measure: inhibition at 0.37 µM

compound: O=C(Nc1ccccc1)Nc1cccc(C(c2c(O)c3c(oc2=O)CCCCCC3)C2CC2)c1 (stereo not shown)
system-name: HIV-1 protease (Human immunodeficiency virus type 1 group M subtype B, UniProt P04585)
value-observed: 10.9%
--
compound: O=c1oc2c(c(O)c1C(c1ccc(NS(=O)(=O)c3cccc([N+](=O)[O-])c3)cc1)C1CC1)CCCCCC2 (stereo not shown)
system-name: HIV-1 protease (Human immunodeficiency virus type 1 group M subtype B, UniProt P04585)
value-observed: 11.8%
--
compound: O=c1oc2c(c(O)c1C(c1ccccc1)C1CC1)CCCCC2CC1CCCOC1 (stereo not shown)
system-name: HIV-1 protease (Human immunodeficiency virus type 1 group M subtype B, UniProt P04585)
value-observed: 10.6%
--
compound: Cc1cccc(Cl)c1S(=O)(=O)Nc1cccc(C(c2c(O)c3c(oc2=O)CCCCCC3)C2CC2)c1 (stereo not shown)
system-name: HIV-1 protease (Human immunodeficiency virus type 1 group M subtype B, UniProt P04585)
value-observed: 14.1%

---

molecular target: HIV-1 protease (Human immunodeficiency virus type 1 group M subtype B, UniProt P04585); experiment: biochemical; details: read-out: HIV-1 Protease % Inhib, dose 100.000 uM
Could you label it 1 (yes) if measured inhibition at 100 µM is 90% or higher, and 0 (no) otherwise?

compound: CCC(c1ccccc1)c1c(O)c2c(oc1=O)CCC2 (centres unmarked)
discrete-label: 1 (yes)

compound: O=c1oc2ccccc2c(O)c1C(CCO)c1ccccc1 (centres unmarked)
discrete-label: 0 (no)

compound: CCC(c1cccc(NC(=O)CC[C@H](N)C(=O)O)c1)c1c(O)c2ccccc2oc1=O (some centres unmarked)
discrete-label: 1 (yes)

compound: CCC(c1cccc(NC(=O)CCNC(=O)OC(C)(C)C)c1)c1c(O)c2ccccc2oc1=O (centres unmarked)
discrete-label: 1 (yes)

compound: CCC(c1cccc(NC(=O)CCN)c1)c1c(O)c2ccccc2oc1=O (centres unmarked)
discrete-label: 0 (no)

compound: CCC(c1cccc(NC(=O)C(C)NC(=O)OC(C)(C)C)c1)c1c(O)c2ccccc2oc1=O (centres unmarked)
discrete-label: 1 (yes)

compound: CCC(c1cccc(NS(=O)(=O)CC)c1)c1c(O)c2ccccc2oc1=O (centres unmarked)
discrete-label: 1 (yes)

compound: CC(C)(C)C(c1ccccc1)c1c(O)c2ccccc2oc1=O (centres unmarked)
discrete-label: 1 (yes)

compound: CCC(c1cccc(C(=O)NC(C(=O)NCc2ccccn2)C(C)CC)c1)c1c(O)c2ccccc2oc1=O (centres unmarked)
discrete-label: 1 (yes)

compound: C=CC(c1ccccc1)c1c(O)c2ccccc2oc1=O (centres unmarked)
discrete-label: 0 (no)

compound: CCC(c1ccccc1)c1c(O)c2c(oc1=O)CCCCCC2 (centres unmarked)
discrete-label: 1 (yes)

compound: CC(=O)Oc1ccc(C(C)(C)c2c(O)c3ccccc3oc2=O)cc1
discrete-label: 1 (yes)

compound: CC(c1cccc(C(=O)NCc2nc3ccccc3[nH]2)c1)c1c(O)c2ccccc2oc1=O (centres unmarked)
discrete-label: 1 (yes)

compound: CCC(c1cccc(NC(=O)C2CCCN2C(=O)OC(C)(C)C)c1)c1c(O)c2ccccc2oc1=O (centres unmarked)
discrete-label: 0 (no)

compound: CCC(c1cccc(OC)c1)c1c(O)c2ccccc2oc1=O (centres unmarked)
discrete-label: 0 (no)

compound: CCC(Cc1ccccc1)c1c(O)c2ccccc2oc1=O (centres unmarked)
discrete-label: 0 (no)

compound: CCC(c1cccc(NC(=O)CC(C)(C)NC(=O)OC(C)(C)C)c1)c1c(O)c2ccccc2oc1=O (centres unmarked)
discrete-label: 0 (no)

compound: CC(c1cccc(C(=O)NCC(=O)OC(C)(C)C)c1)c1c(O)c2ccccc2oc1=O (centres unmarked)
discrete-label: 0 (no)

compound: O=c1oc2ccccc2c(O)c1C(Cc1ccccc1)c1ccccc1 (centres unmarked) [Example 13, 3-(1,2-Diphenylethyl)4-hydroxycoumarin]
discrete-label: 0 (no)

compound: O=c1oc2c(c(O)c1C(c1ccccc1)C1CC1)CCCCC2CC1CC1 (centres unmarked)
discrete-label: 1 (yes)

compound: CCC(c1ccccc1)c1c(O)c2c(oc1=O)C(C)CCCCC2 (centres unmarked)
discrete-label: 1 (yes)
